Exercise: for every item that follows, state its recorded EC50.
system: TGF-β1; assay: EC50 of TGF-β1 siRNA candidates before and after modification, knockdown in cells; type: cell-based, human; settings: BxPC3 cells, homo, 24 h, 24well (Table 6); read-out: EC50 (nM, 24 h, 24well) BxPC3
Oligonucleotides are written 5' to 3', each unit as a sugar letter and its base; * is a phosphorothioate linkage, no mark a phosphodiester; rarer units and linkages stand in square brackets, end groups in braces. Plain capitals give the bases only. {P} = phosphorylation (indicated by P); d = 2'-deoxy (DNA); m = 2'-O-methyl; r = 2'-OH (RNA); f = 2'-fluoro
State the answer as a number, implicitly in nM.

For TF1-21-hm6#: siRNA targeting TGF-β1 mRNA; sense SEQ ID 26, antisense SEQ ID 36 (sense CGGCAGCUGUACAUUGACUTT; antisense AGUCAAUGUACAGCUGCCGTT; sugars from the 5' end r19 d2, backbone not given here) the substance record lists EC50 as 0.03

For TF1-21-hm3#mod: Modified (2′F, 2′OME, phosphorylation) siRNA targeting TGF-β1; sense SEQ ID 147, antisense SEQ ID 151 (sense mAmAmCmUmAmUfUfGfCmUmUmCmAmGmCmUmCmCmAdTdT; antisense {P}-mUfGmGmAmGmCmUmGmAmAmGmCmAfAmUmAmGmUmUdTdT) the substance record lists EC50 as 0.17

For TF1-21-hm6#mod: Modified (2′F, 2′OME, phosphorylation) siRNA targeting TGF-β1; sense SEQ ID 148, antisense SEQ ID 152 (sense mCmGmGmCmAmGfCfUfGmUmAmCmAmUmUmGmAmCmUdTdT; antisense {P}-mAfGmUmCmAmAmUmGmUmAmCmAmGfCmUmGmCmCmGdTdT) the substance record lists EC50 as 0.01

For TF1-21-hm3#: siRNA targeting TGF-β1 mRNA; sense SEQ ID 23, antisense SEQ ID 33 (sense AACUAUUGCUUCAGCUCCATT; antisense UGGAGCUGAAGCAAUAGUUTT; sugars from the 5' end r19 d2, backbone not given here) the substance record lists EC50 as 0.25

These data points were gathered from patent US20230323358A1.
